Numbers sourced from the supplement of paper PMC9112550.

System: Escherichia coli TOP10
test.details: shrunken log2 fold change of peptide-encoding DNA abundance (4.5 h post-induction vs induction); higher = less antimicrobial activity (less host growth inhibition)
condition: time post-induction: 4.5 h; library: site-saturation at positions 5, 18, 19, 20
# label = label 1 if shrunken log2 fold change >= -0.009 else label 0

INSERT INTO assay_data (sequence_string, label_class) VALUES
  ('RRIRTRPPRLPRPRPRPRVWPRP', 'label 1'),
  ('RRIRYRPPRLPRPRPRPFYEPRP', 'label 0'),
  ('RRIRPRPPRLPRPRPRPDYNPRP', 'label 0'),
  ('RRIRSRPPRLPRPRPRPSQKPRP', 'label 0'),
  ('RRIRPRPPRLPRPRPRPCVNPRP', 'label 0'),
  ('RRIRCRPPRLPRPRPRPRPAPRP', 'label 1');

* * *

System: Escherichia coli TOP10
test.details: shrunken log2 fold change of peptide-encoding DNA abundance (4.5 h post-induction vs induction); higher = less antimicrobial activity (less host growth inhibition)
condition: time post-induction: 4.5 h; library: site-saturation at positions 5, 18, 19, 20
measure.name: shrunken log2 fold change

INSERT INTO assay_data (sequence_string, study_target, measure_name, obs_value) VALUES
  ('RRIRRRPPRLPRPRPRPYLKPRP', 'Escherichia coli TOP10', 'shrunken log2 fold change', -0.936),
  ('RRIRCRPPRLPRPRPRPTWFPRP', 'Escherichia coli TOP10', 'shrunken log2 fold change', 0.141),
  ('RRIRYRPPRLPRPRPRPMVIPRP', 'Escherichia coli TOP10', 'shrunken log2 fold change', -0.0231),
  ('RRIRCRPPRLPRPRPRPVTTPRP', 'Escherichia coli TOP10', 'shrunken log2 fold change', -0.0492);

* * *

Tested on: Escherichia coli TOP10
test.details: shrunken log2 fold change of peptide-encoding DNA abundance (4.5 h post-induction vs induction); higher = less antimicrobial activity (less host growth inhibition)
condition: time post-induction: 4.5 h; library: site-saturation at positions 5, 18, 19, 20
Measured shrunken log2 fold change, listed per entry for reference.
measure.name: shrunken log2 fold change

INSERT INTO results (sequence_string, measure_name, obs_value) VALUES
  ('RRIRYRPPRLPRPRPRPNKDPRP', 'shrunken log2 fold change', -1.01),
  ('RRIRHRPPRLPRPRPRPDTGPRP', 'shrunken log2 fold change', -0.014),
  ('RRIRTRPPRLPRPRPRPRLRPRP', 'shrunken log2 fold change', 0.403),
  ('RRIRERPPRLPRPRPRPEDCPRP', 'shrunken log2 fold change', -0.104),
  ('RRIRHRPPRLPRPRPRPSIWPRP', 'shrunken log2 fold change', -0.244),
  ('RRIRSRPPRLPRPRPRPFLIPRP', 'shrunken log2 fold change', -0.383),
  ('RRIRPRPPRLPRPRPRPSMLPRP', 'shrunken log2 fold change', -0.186),
  ('RRIRGRPPRLPRPRPRPHYPPRP', 'shrunken log2 fold change', -0.222),
  ('RRIRPRPPRLPRPRPRPIMFPRP', 'shrunken log2 fold change', -0.37),
  ('RRIRVRPPRLPRPRPRPVHDPRP', 'shrunken log2 fold change', -0.745),
  ('RRIRIRPPRLPRPRPRPNLLPRP', 'shrunken log2 fold change', -0.309),
  ('RRIRPRPPRLPRPRPRPDTVPRP', 'shrunken log2 fold change', -0.207),
  ('RRIRGRPPRLPRPRPRPSPDPRP', 'shrunken log2 fold change', 0.69),
  ('RRIRMRPPRLPRPRPRPCSCPRP', 'shrunken log2 fold change', 0.183),
  ('RRIRLRPPRLPRPRPRPYVTPRP', 'shrunken log2 fold change', -0.169),
  ('RRIRMRPPRLPRPRPRPMSFPRP', 'shrunken log2 fold change', -0.0179),
  ('RRIRRRPPRLPRPRPRPWATPRP', 'shrunken log2 fold change', 0.0893),
  ('RRIRIRPPRLPRPRPRPKVVPRP', 'shrunken log2 fold change', -0.00466),
  ('RRIRWRPPRLPRPRPRPYCKPRP', 'shrunken log2 fold change', -0.864),
  ('RRIRDRPPRLPRPRPRPWSKPRP', 'shrunken log2 fold change', -0.203),
  ('RRIRSRPPRLPRPRPRPREDPRP', 'shrunken log2 fold change', 0.432),
  ('RRIRNRPPRLPRPRPRPWHIPRP', 'shrunken log2 fold change', -0.325),
  ('RRIRNRPPRLPRPRPRPPADPRP', 'shrunken log2 fold change', 0.595),
  ('RRIRMRPPRLPRPRPRPKNWPRP', 'shrunken log2 fold change', 0.671),
  ('RRIRHRPPRLPRPRPRPCPEPRP', 'shrunken log2 fold change', 0.037),
  ('RRIRPRPPRLPRPRPRPNVDPRP', 'shrunken log2 fold change', -0.0229),
  ('RRIRARPPRLPRPRPRPTCRPRP', 'shrunken log2 fold change', 0.592),
  ('RRIRCRPPRLPRPRPRPQIDPRP', 'shrunken log2 fold change', -0.0788),
  ('RRIRYRPPRLPRPRPRPNDTPRP', 'shrunken log2 fold change', -0.921),
  ('RRIRTRPPRLPRPRPRPSEPPRP', 'shrunken log2 fold change', -0.295),
  ('RRIRCRPPRLPRPRPRPWTFPRP', 'shrunken log2 fold change', -0.126),
  ('RRIRIRPPRLPRPRPRPLMYPRP', 'shrunken log2 fold change', -0.513),
  ('RRIRERPPRLPRPRPRPYSYPRP', 'shrunken log2 fold change', -0.0155),
  ('RRIRQRPPRLPRPRPRPDLCPRP', 'shrunken log2 fold change', -0.00719),
  ('RRIRKRPPRLPRPRPRPVMLPRP', 'shrunken log2 fold change', 0.109),
  ('RRIRIRPPRLPRPRPRPRISPRP', 'shrunken log2 fold change', -0.127),
  ('RRIRQRPPRLPRPRPRPVHSPRP', 'shrunken log2 fold change', -0.0049),
  ('RRIRIRPPRLPRPRPRPVMHPRP', 'shrunken log2 fold change', 0.152),
  ('RRIRFRPPRLPRPRPRPSHKPRP', 'shrunken log2 fold change', -0.121),
  ('RRIRFRPPRLPRPRPRPTQYPRP', 'shrunken log2 fold change', -0.261),
  ('RRIRIRPPRLPRPRPRPPNGPRP', 'shrunken log2 fold change', -0.291),
  ('RRIRDRPPRLPRPRPRPEKIPRP', 'shrunken log2 fold change', 0.652),
  ('RRIRHRPPRLPRPRPRPECWPRP', 'shrunken log2 fold change', 0.514);

* * *

Measured shrunken log2 fold change, listed per entry for reference.
System: Escherichia coli TOP10;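 also: peptides expressed intracellularly from a pBAD plasmid library in pooled LB shake-flask culture, induced with 0.3% L-arabinose, DNA abundance read by NGS, three biological replicates, DESeq2 with apeglm shrinkage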
test.details: shrunken log2 fold change of peptide-encoding DNA abundance (4.5 h post-induction vs induction); higher = less antimicrobial activity (less host growth inhibition)
condition: time post-induction: 4.5 h; library: site-saturation at positions 5, 18, 19, 20
measure.name: shrunken log2 fold change

INSERT INTO measurements (sequence_string, measure_name, obs_value) VALUES
  ('RRIRKRPPRLPRPRPRPTEGPRP', 'shrunken log2 fold change', 0.869),
  ('RRIRKRPPRLPRPRPRPARFPRP', 'shrunken log2 fold change', 0.396),
  ('RRIRRRPPRLPRPRPRPFRAPRP', 'shrunken log2 fold change', 0.251),
  ('RRIRKRPPRLPRPRPRPRSCPRP', 'shrunken log2 fold change', 0.239),
  ('RRIRMRPPRLPRPRPRPIPNPRP', 'shrunken log2 fold change', 0.983),
  ('RRIRHRPPRLPRPRPRPQQKPRP', 'shrunken log2 fold change', -0.0153),
  ('RRIRWRPPRLPRPRPRPVVDPRP', 'shrunken log2 fold change', 0.0903),
  ('RRIRTRPPRLPRPRPRPSGEPRP', 'shrunken log2 fold change', 2.88),
  ('RRIRPRPPRLPRPRPRPESRPRP', 'shrunken log2 fold change', 0.11),
  ('RRIRVRPPRLPRPRPRPCLGPRP', 'shrunken log2 fold change', -0.069),
  ('RRIRERPPRLPRPRPRPMGHPRP', 'shrunken log2 fold change', -0.298),
  ('RRIRQRPPRLPRPRPRPEDPPRP', 'shrunken log2 fold change', -0.00697),
  ('RRIRFRPPRLPRPRPRPKVTPRP', 'shrunken log2 fold change', -0.2),
  ('RRIRIRPPRLPRPRPRPIMMPRP', 'shrunken log2 fold change', -0.132),
  ('RRIRFRPPRLPRPRPRPCVWPRP', 'shrunken log2 fold change', 0.0426),
  ('RRIRVRPPRLPRPRPRPDPPPRP', 'shrunken log2 fold change', 1.27),
  ('RRIRKRPPRLPRPRPRPCHNPRP', 'shrunken log2 fold change', -0.111),
  ('RRIRARPPRLPRPRPRPTCTPRP', 'shrunken log2 fold change', 0.764),
  ('RRIRPRPPRLPRPRPRPIKKPRP', 'shrunken log2 fold change', -0.00206),
  ('RRIRKRPPRLPRPRPRPPAPPRP', 'shrunken log2 fold change', 1.14),
  ('RRIRHRPPRLPRPRPRPMGVPRP', 'shrunken log2 fold change', -0.00663);
